pIC50: −log10 of the molar value.
A set of compounds tested on UniProtKB P23458, with measured pIC50:

Compound: Cc1cc(Nc2ncc(C)c(N3CC(CC#N)(N4CCN5CC6CC5(C6)C4)C3)n2)sn1 [E86a]
pIC50: > 7.00
--
Compound: Cc1cc(Nc2ncc(F)c(N3CC(CC#N)(N4CCCCC4)C3)n2)sn1 [E74a]
pIC50: > 6.30
--
Compound: Cc1cc(Nc2ncc(C)c(N3CC(CC#N)(N4CCN5C[C@H](F)C[C@H]5C4)C3)n2)sn1 [E67a]
pIC50: > 8.00
--
Compound: Cc1cnc(Nc2cnn(C)c2)nc1N1CC(CC#N)(N2CCN3CCC[C@H]3C2)C1 [E162a]
pIC50: > 7.30

Ask | Determine its reported pIC50: Cc1cc(Nc2ncc(C)c(N3CC(N)(CC#N)C3)n2)sn1 [E289]
Reply | > 6.82

---

pIC50: −log10 of the molar value.
Notes on pIC50 obtained with TYK2 (Homo sapiens (Human), UniProt P29597).
Sequence (P29597 whole entry, species assumed): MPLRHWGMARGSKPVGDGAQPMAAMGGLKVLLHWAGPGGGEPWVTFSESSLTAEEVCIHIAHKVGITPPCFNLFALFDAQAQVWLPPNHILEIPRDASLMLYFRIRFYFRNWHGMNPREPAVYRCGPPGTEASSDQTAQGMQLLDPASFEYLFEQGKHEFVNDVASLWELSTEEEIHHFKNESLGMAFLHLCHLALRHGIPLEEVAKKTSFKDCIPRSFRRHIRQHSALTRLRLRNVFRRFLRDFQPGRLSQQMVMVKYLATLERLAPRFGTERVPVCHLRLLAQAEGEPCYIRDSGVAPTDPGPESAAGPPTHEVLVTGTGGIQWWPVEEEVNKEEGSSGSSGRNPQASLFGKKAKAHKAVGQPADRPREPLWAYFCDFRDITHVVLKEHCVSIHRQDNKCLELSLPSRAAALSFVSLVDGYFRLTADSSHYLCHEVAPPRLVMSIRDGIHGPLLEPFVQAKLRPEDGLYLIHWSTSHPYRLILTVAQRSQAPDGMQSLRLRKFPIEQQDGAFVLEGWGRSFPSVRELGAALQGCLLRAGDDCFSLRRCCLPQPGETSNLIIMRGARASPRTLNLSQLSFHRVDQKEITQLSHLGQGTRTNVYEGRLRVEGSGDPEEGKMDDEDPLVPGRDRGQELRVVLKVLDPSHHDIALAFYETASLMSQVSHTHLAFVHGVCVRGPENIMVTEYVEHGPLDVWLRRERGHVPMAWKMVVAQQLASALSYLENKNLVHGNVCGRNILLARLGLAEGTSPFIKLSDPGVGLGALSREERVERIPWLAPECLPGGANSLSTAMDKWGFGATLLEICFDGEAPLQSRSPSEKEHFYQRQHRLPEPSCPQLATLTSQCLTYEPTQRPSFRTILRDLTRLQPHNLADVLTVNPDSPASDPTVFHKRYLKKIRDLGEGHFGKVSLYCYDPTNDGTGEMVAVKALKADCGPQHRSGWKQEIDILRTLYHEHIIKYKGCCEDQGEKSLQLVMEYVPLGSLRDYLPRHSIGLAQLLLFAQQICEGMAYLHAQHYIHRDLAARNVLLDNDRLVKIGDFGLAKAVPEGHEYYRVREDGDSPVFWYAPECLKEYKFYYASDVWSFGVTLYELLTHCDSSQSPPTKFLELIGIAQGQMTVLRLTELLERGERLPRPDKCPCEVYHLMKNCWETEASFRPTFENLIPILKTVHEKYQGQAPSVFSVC

Compound: Cc1cnc(Nc2ccc3c(c2)CN(C)C3)nc1N1CC(CC#N)(N2CCCC3(C2)CC3(F)F)C1 (centres unmarked) [E111]
Value type: pIC50
Observed value: > 8.00

Compound: Cc1cnc(Nc2cnn(C)c2)nc1N1CC(CC#N)(N2CCN3CC(C)(C)C[C@H]3C2)C1 [E173a]
Value type: pIC50
Observed value: > 8.00

Compound: Cc1cc(Nc2ncc(C)c(N3CC(C)(CNC(=O)C4CN(C)C4)C3)n2)sn1 [E280]
Value type: pIC50
Observed value: > 6.40

Compound: CCC1(NC(=O)c2cccc(F)c2)CN(c2nc(Nc3cnn(C)c3)ncc2C)C1 [E318C]
Value type: pIC50
Observed value: > 7.30

Compound: Cc1cc(Nc2ncc(C)c(N3CC(CC#N)(N4CC5CC(C5)C4)C3)n2)sn1 [E19]
Value type: pIC50
Observed value: > 8.00

Compound: Cc1cc(Nc2ncc(C)c(N3CC(CC#N)(N4CCN(C)CC4)C3)n2)sn1 [E5]
Value type: pIC50
Observed value: > 8.00

Compound: Cc1cc(Nc2ncc(C)c(N3CC(CCCl)(N4CCCCC4)C3)n2)sn1 [E113a]
Value type: pIC50
Observed value: > 8.00

Compound: Cc1cnc(Nc2cnn(C)c2)nc1N1CC(CC#N)(N[C@H]2CC[C@H](NS(C)(=O)=O)C2)C1 [E306]
Value type: pIC50
Observed value: > 7.22

Compound: Cc1cc(Nc2ncc(C)c(N3CC(CC#N)(N4CCCN5CCC[C@H]5C4)C3)n2)sn1 [E87a]
Value type: pIC50
Observed value: > 8.00

Compound: Cc1cc(Nc2ncc(C)c(N3CC(CC#N)(NC(=O)c4cccc(F)c4C)C3)n2)sn1 [E318]
Value type: pIC50
Observed value: > 7.52

Ask | Name the recorded pIC50 of the compound listed here: COC1CCN(C2(CC#N)CN(c3nc(Nc4cc(C)ns4)ncc3C)C2)CC1 [E69a]
Reply | > 8.00

Ask | Retrieve pIC50 measured for Cc1cnc(Nc2cnn(C)c2)nc1N1CC(CC#N)(N2CCN3CCCC[C@@H]3C2)C1 [E159a] and print it.
Reply | > 7.00

Ask | Determine from records and report pIC50 for Cc1cc(Nc2ncc(C)c(N3CC(CC#N)(NC(C)c4cccc(F)c4)C3)n2)sn1 (centres unmarked) [E352]
Reply | > 7.30

Ask | For Cc1cc(Nc2ncc(C)c(N3CC(CC#N)(NC4CN(C)C4)C3)n2)sn1 [E52H] , write its pIC50.
Reply | > 7.00

Ask | For Cc1cc(Nc2ncc(C)c(N3CC(CC#N)(N4CC5CC(C4)C5(F)F)C3)n2)sn1 [E31] , write its pIC50.
Reply | > 8.00

Ask | Quick one: give measured pIC50 for Cc1cc(Nc2ncc(C)c(N3CC(CC#N)(NCC4CCC(F)C4)C3)n2)sn1 (centres unmarked) [E359]
Reply | > 8.00

Ask | Item Cc1cc(Nc2ncc(F)c(N3CC(CC#N)(N4CCCCC4)C3)n2)sn1 [E74a] : provide pIC50
Reply | > 7.70

Ask | Hello, please tell me recorded pIC50 for this one: Cc1cnc(Nc2cnn(C)c2)nc1N1CC(CC#N)(N2CCN3C[C@H](C)C[C@H]3C2)C1 [E175a]
Reply | > 7.30

Ask | Provide one value: measured pIC50 of Cc1cc(Nc2ncc(C)c(N3CC(CC#N)(N4CCN(CCF)CC4)C3)n2)sn1 [E55a]
Reply | > 8.00

Ask | Return reported pIC50. Input compound: Cc1cc(Nc2ncc(C)c(N3CC(CC#N)(N4CCN5CCCC[C@@H]5C4)C3)n2)sn1 [E85a]
Reply | > 8.00

Ask | Query pIC50 for Cc1cnc(Nc2cnn(C)c2)nc1N1CC(O)(CF)C1 [E175-A]
Reply | > 6.92

Ask | Quick one: give measured pIC50 for Cc1cc(Nc2ncc(C)c(N3CC(CC#N)(N4CCN5CCC[C@@H]5C4)C3)n2)sn1 [E61a]
Reply | > 7.30

Ask | Look up pIC50 of CCC1(NC(=O)c2cccc(F)c2)CN(c2nc(Nc3cc(C)ns3)ncc2C)C1 [E318B] and report it.
Reply | > 8.00

Ask | For the compound Cc1cc(Nc2ncc(C)c(N3CC(CC#N)(N4CC5CC(C4)N5C)C3)n2)sn1 [E52F] , give its measured pIC50 value.
Reply | > 7.30

Ask | In one line, give reported pIC50 of the entry Cc1cnc(Nc2ccc(S(C)(=O)=O)cc2)nc1N1CC(CC(F)F)(C2CC2)C1 [E216-B] .
Reply | > 8.00

Ask | Tell us which pIC50 value is on record for Cc1cc(Nc2ncc(C)c(N3CC(CC#N)(N4CCN5CCOC[C@H]5C4)C3)n2)sn1 [E78a]
Reply | > 8.00
